# Test system: NHDF (normal human dermal fibroblasts)
# test summary: WST-1 proliferation assay, NHDF
# Format: cell-based
# conditions used: Homo sapiens, NHDF, normal cells, 72 h exposure
outcome measure: IC50 (µM)
One number for each entry, in µM.

C[n+]1cc2c(c3ccccc31)Nc1cc(OCc3cn(Cc4ccccc4)nn3)ccc1S2
56.6
C=CCn1cc(COc2ccc3c(c2)Sc2c[n+](C)c4ccccc4c2N3)nn1
47.8
C[n+]1cc2c(c3ccccc31)Nc1ccc(OCc3cn(Cc4ccc([N+](=O)[O-])cc4)nn3)cc1S2
27.6

Input: Would you kindly share the measured IC50 for COc1cccc2c1C(=O)c1c(O)c3c(c(O)c1C2=O)C[C@@](O)(C(=O)CO)C[C@@H]3O[C@H]1C[C@H](N)[C@H](O)[C@H](C)O1 [DOX, doxorubicin, reference compound] ?
Output: 5.5
